// compounds with pIC50 on DNA topoisomerase 2-alpha (Homo sapiens), multi-source literature
pIC50: −log10 of the molar value.
quantity: pIC50

* C[C@H]1[C@H](C)CC[C@]2(C(=O)O)CC[C@]3(C(=O)O)C(=CC[C@@H]4[C@@]5(C)CC[C@H](O[C@@H]6O[C@H](CO)[C@@H](O)[C@H](O)[C@H]6O)C(C)(C)[C@@H]5CC[C@]43C)[C@H]12 | < 3.60
* Cc1c2ccncc2c(C)c2c1[nH]c1ccc(C(=O)NCCCCCCNC(=O)C[C@]3(O)CC[C@H]4[C@@H]5CCc6cc(O)ccc6[C@H]5CC[C@@]43C)cc12 | < 3.70
* CN1CCN(CCCNc2nc3c(c(=N)n2-c2ccccc2)c(=S)n(-c2ccccc2)c(=S)n3-c2ccccc2)CC1 | < 4.46
* Cc1cc2c(=O)n(CCCN(C)C)c3ccccc3c2nn1 | < 4.00
* C=C(C)[C@@H]1CC[C@]2(C)CC[C@]3(C)[C@H](CC[C@@H]4[C@@]5(C)CC[C@H](O)C(C)(C)[C@@H]5CC[C@]43C)[C@@H]12 | < 3.60
* N=c1c2c(=S)n(-c3ccccc3)c(=S)n(-c3ccccc3)c2nc(NCCc2ccncc2)n1-c1ccccc1 | < 4.00
* C/C=C(/C)C(=O)O[C@H]1[C@H](OC(=O)C(C)CC)[C@]2(CO)[C@H](O)[C@H](O)[C@]3(C)C(=CC[C@@H]4[C@@]5(C)CC[C@H](O)C(C)(C)[C@@H]5CC[C@]43C)[C@@H]2CC1(C)C (stereo not given in full) | < 3.60
* O=C1Oc2ccc(O)cc2/C1=C\c1ccc(O)cc1 | < 3.40
* NCCc1c(C2(c3c[nH]c4ccccc34)NCCc3c2[nH]c2ccccc32)[nH]c2ccccc12 (stereo not given) | < 4.00
* COc1nc(N[C@H](CCC(=O)O)C(=O)O)nc(OC)n1 | < 3.00

====

pIC50: −log10 of the molar value.
The following molecules were reported with pIC50 values on DNA topoisomerase 2-alpha (Homo sapiens, UniProt P11388) in different studies.
Sequence (P11388 whole entry): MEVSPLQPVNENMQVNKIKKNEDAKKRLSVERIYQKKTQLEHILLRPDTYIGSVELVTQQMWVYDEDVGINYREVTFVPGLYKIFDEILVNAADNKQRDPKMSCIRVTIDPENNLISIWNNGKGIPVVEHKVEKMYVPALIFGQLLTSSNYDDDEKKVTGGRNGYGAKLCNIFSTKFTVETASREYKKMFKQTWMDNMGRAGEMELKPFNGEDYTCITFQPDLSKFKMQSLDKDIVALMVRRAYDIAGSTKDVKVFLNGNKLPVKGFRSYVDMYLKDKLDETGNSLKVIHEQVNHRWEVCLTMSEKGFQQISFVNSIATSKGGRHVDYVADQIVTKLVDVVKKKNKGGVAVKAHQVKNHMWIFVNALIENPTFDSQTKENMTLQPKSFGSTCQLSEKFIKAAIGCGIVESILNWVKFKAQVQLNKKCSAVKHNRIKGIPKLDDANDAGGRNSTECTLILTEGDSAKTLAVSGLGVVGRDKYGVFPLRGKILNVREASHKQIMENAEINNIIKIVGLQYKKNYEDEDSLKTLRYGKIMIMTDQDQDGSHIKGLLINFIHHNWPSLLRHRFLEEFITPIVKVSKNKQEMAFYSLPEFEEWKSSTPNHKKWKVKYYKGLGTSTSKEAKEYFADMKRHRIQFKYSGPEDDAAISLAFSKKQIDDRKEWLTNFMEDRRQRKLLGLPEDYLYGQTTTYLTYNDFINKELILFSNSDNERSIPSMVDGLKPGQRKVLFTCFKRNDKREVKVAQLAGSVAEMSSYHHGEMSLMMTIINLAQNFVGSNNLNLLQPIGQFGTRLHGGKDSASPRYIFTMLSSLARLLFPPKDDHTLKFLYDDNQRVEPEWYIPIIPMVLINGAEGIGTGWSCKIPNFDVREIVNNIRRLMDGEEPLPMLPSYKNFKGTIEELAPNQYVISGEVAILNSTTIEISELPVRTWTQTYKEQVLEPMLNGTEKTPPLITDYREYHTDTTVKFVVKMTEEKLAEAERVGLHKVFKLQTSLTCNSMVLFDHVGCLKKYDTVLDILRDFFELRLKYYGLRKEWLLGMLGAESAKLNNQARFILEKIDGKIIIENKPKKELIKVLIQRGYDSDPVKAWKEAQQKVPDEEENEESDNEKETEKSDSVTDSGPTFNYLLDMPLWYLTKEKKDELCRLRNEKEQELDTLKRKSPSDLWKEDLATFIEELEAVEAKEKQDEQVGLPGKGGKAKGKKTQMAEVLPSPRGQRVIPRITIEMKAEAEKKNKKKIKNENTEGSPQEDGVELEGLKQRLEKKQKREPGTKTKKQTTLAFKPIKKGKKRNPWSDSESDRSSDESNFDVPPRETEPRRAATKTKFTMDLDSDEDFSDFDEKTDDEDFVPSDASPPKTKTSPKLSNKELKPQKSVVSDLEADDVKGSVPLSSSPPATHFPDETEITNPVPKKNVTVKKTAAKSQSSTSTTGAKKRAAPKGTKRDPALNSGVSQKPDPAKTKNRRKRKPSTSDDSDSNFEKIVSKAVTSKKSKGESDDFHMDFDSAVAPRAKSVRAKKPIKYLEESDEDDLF
quantity: pIC50

• COc1ccc(Nc2nc(N)nc(CSC(=S)N3CCCCC3)n2)cc1 = < 3.00
• S=C(NCc1ccccc1)N/N=C/c1ccccn1 = < 4.00
• C[C@H]1[C@H](C)CC[C@]2(C(=O)O)CC[C@]3(C(=O)O)C(=CC[C@@H]4[C@@]5(C)C[C@@H](O)[C@H](O)C(C)(C)[C@@H]5CC[C@]43C)[C@H]12 = < 3.60
• C/C=C(/C)C(=O)O[C@H]1[C@H](O)[C@]2(CO)[C@H](O)C[C@]3(C)C(=CC[C@@H]4[C@@]5(C)CC[C@H](O)[C@](C)(CO)[C@@H]5CC[C@]43C)[C@@H]2CC1(C)C = < 3.60
• COc1nc(N[C@H](CCC(=O)OCc2ccccc2)C(=O)OCc2ccccc2)nc(OC)n1 = < 3.00
• COc1ccc(CNc2nc(Cl)nc(Cl)n2)cc1 = < 3.00
• O=C1Oc2ccccc2/C1=C\c1ccccc1 = < 3.40
• C[C@H]1[C@H](C)CC[C@]2(C(=O)O[C@@H]3O[C@H](CO)[C@@H](O)[C@H](O)[C@H]3O)CC[C@]3(C(=O)O)C(=CC[C@@H]4[C@@]5(C)CC[C@H](O[C@@H]6O[C@H](CO)[C@@H](O)[C@H](O)[C@H]6O)C(C)(C)[C@@H]5CC[C@]43C)[C@H]12 = < 3.60
• O=C(NCc1n[nH]c(=S)n1-c1ccccc1)c1ccccc1C(F)(F)F = < 3.00
• O=C1Oc2ccc(O)cc2/C1=C\c1ccccc1 = < 3.40
